Provide the recorded Area Frac. % for the entries that follow.
# assay notes: Cleavage of 1 (CPT600) after photo-reaction in solution (UV irradiation, HCl treatment, RP-HPLC UV/MS)
# Assay type: physicochemical
# recorded conditions: 1 (CPT600) after UV irradiation and HCl 37 °C 2 h; BPC + All MS
# output: numeric value plus its unit

Looking up `C#CCNC(=O)C(CO)(CO)C(=O)NCCCC[C@@H](C(=O)NCCc1ccc(NC(=O)CCCCCCC(=O)O)cc1)[N+](C)(C)C` , I see its Area Frac. % listed as 27.10%

Looking up C#CCNC(=O)C1(C(=O)NCCCC[C@@H](C(=O)NCCc2ccc(NC(=O)CCCCCCC(=O)NO)cc2)[N+](C)(C)C)COC(c2ccc(C(O)C(F)(F)F)cc2)OC1 (stereo partly shown) , I see its Area Frac. % listed as 6.52%

Looking up C#CCNC(=O)C1(C(=O)NCCCC[C@@H](C(=O)NCCc2ccc(NC(=O)CCCCCCC(=O)O)cc2)[N+](C)(C)C)COC(c2ccc(C(O)C(F)(F)F)cc2)OC1 (stereo partly shown) , I see its Area Frac. % listed as 5.82%

Looking up C#CCNC(=O)C1(C(=O)NCCCC[C@@H](C(=O)NCCc2ccc(NC(=O)CCCCCCC(=O)O)cc2)[N+](C)(C)C)COC(c2ccc(C3(C(F)(F)F)N=N3)cc2)OC1 (stereo partly shown) , I see its Area Frac. % listed as 2.52%

* * *

# assay notes: Cleavage of 1 (CPT600) after photo-reaction in solution (UV irradiation, HCl treatment, RP-HPLC UV/MS)
# Format: physicochemical
# recorded conditions: 1 (CPT600) after UV irradiation and HCl 37 °C 2 h; BPC + All MS
# Method: In a 100 μL PCR tube, 20 μL 73 μM 1 (CPT600) was irradiated at 4° C. for 5 min in the caproBox (310 nm version, caprotec bioanalytics GmbH, Berlin, Germany). 1.7 μL 37% HCl was added, mixed and the solution was incubated on a thermoshaker at 37° C. for 2 h. Then 100 μL Milli-Q water and 9 μL 2N NaOH were added and mixed. The resulting solution as analyzed by RP-HPLC coupled to a UV detector and a mass spectrometer (FIG. 6 and Table 2a) as described in example 1. […]
Provide the recorded Area (MS-peak integration) for the entries that follow.
Just the number, please.

Looking up C#CCNC(=O)C1(C(=O)NCCCC[C@@H](C(=O)NCCc2ccc(NC(=O)CCCCCCC(=O)O)cc2)[N+](C)(C)C)COC(c2ccc(C(O)C(F)(F)F)cc2)OC1 (stereo partly shown) [Compound 4] , I see its Area (MS-peak integration) listed as 386267200

Looking up C#CCNC(=O)C1(C(=O)NCCCC[C@@H](C(=O)NCCc2ccc(NC(=O)CCCCCCC(=O)O)cc2)[N+](C)(C)C)COC(c2ccc(C3(C(F)(F)F)N=N3)cc2)OC1 (stereo partly shown) [Compound 2] , I see its Area (MS-peak integration) listed as 167125312

Looking up C#CCNC(=O)C(CO)(CO)C(=O)NCCCC[C@@H](C(=O)NCCc1ccc(NC(=O)CCCCCCC(=O)O)cc1)[N+](C)(C)C [Compound 7] , I see its Area (MS-peak integration) listed as 1798498944

Looking up C#CCNC(=O)C1(C(=O)NCCCC[C@@H](C(=O)NCCc2ccc(NC(=O)CCCCCCC(=O)NO)cc2)[N+](C)(C)C)COC(c2ccc(C(O)C(F)(F)F)cc2)OC1 (stereo partly shown) [Compound 3] , I see its Area (MS-peak integration) listed as 432395200

Each recorded value in this set is attributed to patent US20160349268A1.
